Known DC50 of a selection of compounds
System name: IRAK4 (Homo sapiens, UniProt Q9NWZ3)
Construct: endogenous in cells; host or cells: OCI-LY10
Sequence (Q9NWZ3 whole entry): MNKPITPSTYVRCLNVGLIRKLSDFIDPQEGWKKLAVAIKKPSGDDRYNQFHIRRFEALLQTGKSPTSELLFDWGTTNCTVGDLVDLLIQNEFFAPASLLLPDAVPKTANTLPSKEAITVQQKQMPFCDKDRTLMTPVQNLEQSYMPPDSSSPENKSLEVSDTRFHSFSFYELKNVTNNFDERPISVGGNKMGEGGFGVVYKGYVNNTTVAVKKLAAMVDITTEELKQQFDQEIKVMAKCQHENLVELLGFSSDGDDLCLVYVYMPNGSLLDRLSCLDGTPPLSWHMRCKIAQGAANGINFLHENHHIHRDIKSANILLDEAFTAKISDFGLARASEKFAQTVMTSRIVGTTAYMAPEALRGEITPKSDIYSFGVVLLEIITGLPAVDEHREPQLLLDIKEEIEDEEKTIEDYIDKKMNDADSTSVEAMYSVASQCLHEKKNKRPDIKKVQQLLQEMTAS
Measurement protocol: IRAK4 MSD Degradation in OCI-LY10
Format: cell-based
Test context: OCI-LY10 cells, Meso Scale Discovery, incubated 4 to 24 hours
Description: Degradation of IRAK4 in OCI-LY10 was quantitatively measured using Meso Scale Discovery technology. OCI-LY10 cells were seeded in 96-well plates (Corning 3799) with a density of 300,000 cells per well in 100 μL fresh media. […] The assay plates were then incubated at room temperature for 1 hour, washed 3 times with 150 μL/well TBST buffer, and 150 μL/well MSD reading buffer (Meso Scale Discovery catalog number R92TC-2) was added. […]

Worked examples follow.
N#Cc1cc2nn([C@H]3CC[C@H](CN4CCC(c5cccc6c(N7CCC(=O)NC7=O)cncc56)CC4)CC3)cc2cc1NC(=O)c1cccc(C(F)(F)F)n1
< 10 nM
COc1cc2nn([C@H]3CC[C@H](CN4CC[C@H](c5cccc6c5n(C)c(=O)n6C5CCC(=O)NC5=O)CC4(C)C)CC3)cc2cc1NC(=O)c1cccc(C(F)(F)F)n1 (single isomer, unassigned)
< 10 nM
Cc1cccc(C(=O)Nc2cc3sc([C@H]4CC[C@H](CN5C[C@H]6C[C@@H]5CN6CCNc5cccc6c5C(=O)N(C5CCC(=O)NC5=O)C6=O)CC4)nc3cc2C(C)(C)O)n1 (some centres unmarked)
< 10 nM
COc1ccc2c(c1N1CCN(C[C@H]3CC[C@H](NC(=O)c4cnc(-c5ccc6cc(C#N)cnn56)cc4NC(C)C)CC3)CC1)n(C)c(=O)n2C1CCC(=O)NC1=O (some centres unmarked)
< 10 nM
COc1cc(NC(=O)c2cccc(C(F)(F)F)n2)cc2cn([C@H]3CC[C@H](CN4CCC(c5cccc6c5n(C)c(=O)n6C5CCC(=O)NC5=O)CC4)CC3)nc12 (some centres unmarked)
< 10 nM

q: Please respond with reported DC50 (system IRAK4 (Homo sapiens, UniProt Q9NWZ3)) for CN(C)c1cc2nn([C@H]3CC[C@H](CN4CCN(c5cccc6c5n(C)c(=O)n6C5CCC(=O)NC5=O)CC4)CC3)cc2cc1NC(=O)c1cccc(C(F)(F)F)n1 (some centres unmarked) .
a: 10 to 50 nM

q: Find the measured DC50 of COc1cc2nn([C@H]3C[C@H](CN4CCC(c5c(OC)ccc6c5n(C)c(=O)n6C5CCC(=O)NC5=O)CC4)C3)cc2cc1NC(=O)c1cccc(C(F)(F)F)n1 (some centres unmarked) with IRAK4 (Homo sapiens, UniProt Q9NWZ3) as test system.
a: < 10 nM

q: Provide IRAK4 (Homo sapiens, UniProt Q9NWZ3) DC50 reading for CN(C[C@H]1CC[C@H](n2cc3cc(NC(=O)c4cccc(C(F)(F)F)n4)ncc3n2)CC1)C1CCN(c2cccc3c(N4CCC(=O)NC4=O)cncc23)CC1 .
a: > 200 nM

q: // fetch DC50 for COc1cc2nn([C@H]3CC[C@H](CN4CCN(c5cccc6c5n(C5CC5)c(=O)n6C5CCC(=O)NC5=O)CC4)CC3)cc2cc1NC(=O)c1cccc(C(F)(F)F)n1 (some centres unmarked) ; system: IRAK4 (Homo sapiens, UniProt Q9NWZ3)
a: < 10 nM

q: Identify measured DC50 obtained with IRAK4 (Homo sapiens, UniProt Q9NWZ3) for COc1cc2nn([C@H]3CC[C@H](CN4CCN(c5ccc(N6CCC(=O)NC6=O)cn5)CC4)CC3)cc2cc1NC(=O)c1cccc(C(F)(F)F)n1 .
a: > 200 nM

q: Fetch value of DC50 on IRAK4 (Homo sapiens, UniProt Q9NWZ3) for CC(C)Nc1cc(-n2ccc3cc(C#N)cnc32)ncc1-c1cn([C@H]2CC[C@H](CN3CCN(c4cccc5c4n(C)c(=O)n5C4CCC(=O)NC4=O)CC3)CC2)nn1 (some centres unmarked) .
a: 10 to 50 nM
